Please go through the items and note down their Viral Titer (ZIKV).
Test system: ZIKV
Method notes: Image-based phenotypic antiviral screen in ZIKV-infected U87 cells
Format: cell-based, Zika virus (strain H/PF/2013)
Settings: screen, U87 cells, ZIKV
Give the value in % but do not write % after it.

Lab note: need Viral Titer (ZIKV) with ZIKV for entry CCOC(=O)c1cnn(-c2cccc3c2[nH]c(=O)n3C2CCN(C(=O)Nc3ccc(I)cc3)CC2)c1 , please look it up.
5

Queued: NC(=O)c1ncn([C@@H]2O[C@H](CO)[C@@H](O)[C@H]2O)n1 [Ribavirin, reference compound]
37

Queued: O=C(Nc1ccc(I)cc1)N1CCC(n2c(=O)[nH]c3cc(Cl)ccc32)CC1
4

Queued: O=C(Nc1ccc(I)cc1)N1CCC(n2c(=O)[nH]c3cc(C(F)(F)F)ccc32)CC1
2
